Taken from ChEMBL document CHEMBL4330106.

MEASUREMENT DESCRIPTION: Stability in Sprague-Dawley rat serum assessed as parent compound remaining at 10 ug/ml measured after 15 mins by LC-MS/MS analysis
Format: ADME, cell-free
CONDITION LABEL: read-out: Stability
Square brackets hold non-standard residues; d marks the D form. Peptide text beside a SMILES is read from it. Arg(Me) = CNC(=N)NCCC[C@H](N)C(=O)O; d4Pal = N[C@H](Cc1ccncc1)C(=O)O; azaGly = NNC(=O)O
Each entry below carries its reported remaining at 0.25 h, 10 ug/ml.
METRIC NAME: remaining at 0.25 h, 10 ug/ml

{"COMPOUND": "CC(C)C[C@H](NC(=O)CNC(=O)[C@H](Cc1ccccc1)NC(=O)[C@H](CO)NC(=O)[C@H](CC(N)=O)NC(=O)[C@H](Cc1c[nH]c2ccccc12)NC(=O)[C@H](CC(N)=O)NC(=O)[C@@H](N)Cc1ccc(O)cc1)C(=O)N[C@@H](CCCNC(=N)N)C(=O)N[C@@H](Cc1ccccc1)C(N)=O", "METRIC NAME": "remaining at 0.25 h, 10 ug/ml", "RESULT": "< 0.5%"}
{"COMPOUND": "CNC(=N)NCCC[C@H](NC(=O)[C@H](CC(C)C)NC(=O)NNC(=O)[C@H](Cc1ccccc1)NC(=O)c1ccccc1)C(=O)N[C@@H](Cc1c[nH]c2ccccc12)C(N)=O", "METRIC NAME": "remaining at 0.25 h, 10 ug/ml", "RESULT": "97%"}
{"COMPOUND": "CNC(=N)NCCC[C@H](NC(=O)[C@H](CC(C)C)NC(=O)NNC(=O)[C@H](Cc1ccccc1)NC(=O)[C@H](CO)NC(=O)[C@H](CC(N)=O)NC(=O)[C@@H](Cc1ccncc1)NC(=O)[C@H](N)Cc1ccc(O)cc1)C(=O)N[C@@H](Cc1ccccc1)C(N)=O [KISS1-305] (H-[dY][d4Pal]NSF[azaGly]L[Arg(Me)]F-NH2)", "METRIC NAME": "remaining at 0.25 h, 10 ug/ml", "RESULT": "97%"}
